# Test system: HIV-1MDR/B
# ASSAY REMARKS: microbe, parasite or virus in culture
# Assay type: cell-based
# CONDITIONS: Human immunodeficiency virus 1, read-out: IC50 ± SDs
METRIC: pIC50
A value of pIC50 is the negative decimal logarithm of a concentration given in moles per litre.

COc1ccc(S(=O)(=O)N(CC(C)C)C[C@@H](O)[C@H](Cc2ccccc2)NC(=O)O[C@@H]2C[C@@H]3[C@@H](O)CO[C@@H]3C2)cc1 : 7.54

The compound CC(C)CN(C[C@@H](O)[C@H](Cc1ccccc1)NC(=O)O[C@H]1CCOC1)S(=O)(=O)c1ccc(N)cc1 [APV, amprenavir, reference compound] , when measured on HIV-1MDR/B, yielded pIC50 of 6.03

====

# System: HIV-1LAI
# ASSAY REMARKS: In vitro antiviral assay, MT-2 cells exposed to HIV-1LAI, MTT assay
# Type: cell-based
# CONDITIONS: Human immunodeficiency virus 1, MT2, Table 1; MT-2 cells, 100 TCID50s of HIV-1LAI, MTT assay; means of at least two experiments
METRIC: IC50 (nM)
Just the number please, in nM, no unit attached.

Below, 2 molecules whose answers are already recorded.
COc1ccc(S(=O)(=O)N(CC(C)C)C[C@@H](O)[C@H](Cc2ccccc2)NC(=O)O[C@@H]2C[C@@H]3[C@H](C)CO[C@@H]3C2)cc1 [Inhibitor 19e] : 25
COc1ccc(S(=O)(=O)N(CC(C)C)C[C@@H](O)[C@H](Cc2ccccc2)NC(=O)O[C@@H]2C[C@@H]3[C@@H](O)CO[C@@H]3C2)cc1 [Inhibitor 25] : 2.9

Lab note: next molecule to report on.
Value of measured IC50 for the entry COc1ccc(S(=O)(=O)N(CC(C)C)C[C@@H](O)[C@H](Cc2ccccc2)NC(=O)O[C@@H]2C[C@@H]3[C@H](OC)CO[C@@H]3C2)cc1 [Inhibitor 19b] : 37
